Let's look at some compounds and their measured Concentration of nitrite nitrogen.
Test system: Nitrobacter spp.
Test: Nitrite nitrogen in ammonium amended soil incubated at 25° C.
Details: 0.50 ppm; week 0; soil 25° C.; 200 ppm N
Method: Determination of nitrite nitrogen and nitrate nitrogen in soil prepared in Example 1 above, which is amended with 200 ppm of nitrogen as aqueous ammonium sulfate, […], is determined using the nitrite and nitrate analysis of the American Organization of Analytical Chemists (AOAC pp. 653-655).
Structures can show the parent of a compound that is named as a salt.

COMPOUND	TGT	UNIT ANNOTATION	Concentration of nitrite nitrogen
CO[C@@H]1[C@@H](OC)[C@H](C)[C@@](O)(CC(=O)O)O[C@H]1[C@H](C)[C@H]1O[C@@]2(CC[C@@](C)([C@H]3CC[C@@](C)([C@@H]4O[C@@H]([C@H]5O[C@](C)(O)[C@H](C)C[C@@H]5C)C[C@@H]4O[C@@H]4C[C@H](OC)[C@@H](OC)[C@H](C)O4)O3)O2)C[C@H](O)[C@H]1C [Maduramicin monoammonium salt, Maduramicin]	Nitrobacter spp.	ppm	8
CC[C@@H](C(=O)[C@@H](C)[C@@H](O)[C@H](C)CCc1ccc(C)c(O)c1C(=O)O)[C@H]1O[C@](CC)([C@H]2CC[C@](O)(CC)[C@H](C)O2)C[C@@H]1C [Lasalocid sodium salt, Lasalocid]	Nitrobacter spp.	ppm	7

====

test system: Nitrosomonas spp.; assay: Nitrification of ammonium in soil incubated at 25° C. (ammonium recovery, nitrate accumulation); details: 0.50 ppm; week 12; soil 25° C.; 200 ppm N
Structures can show the parent of a compound that is named as a salt.
Let's look at some compounds and their measured Recovery of Ammonium Nitrogen.

COMPOUND	UNIT ANNOTATION	Recovery of Ammonium Nitrogen
CO[C@@H]1[C@@H](OC)[C@H](C)[C@@](O)(CC(=O)O)O[C@H]1[C@H](C)[C@H]1O[C@@]2(CC[C@@](C)([C@H]3CC[C@@](C)([C@@H]4O[C@@H]([C@H]5O[C@](C)(O)[C@H](C)C[C@@H]5C)C[C@@H]4O[C@@H]4C[C@H](OC)[C@@H](OC)[C@H](C)O4)O3)O2)C[C@H](O)[C@H]1C [Maduramicin monoammonium salt, Maduramicin]	PPM	189
Clc1cccc(C(Cl)(Cl)Cl)n1	PPM	184
CC[C@@H](C(=O)[C@@H](C)[C@@H](O)[C@H](C)CCc1ccc(C)c(O)c1C(=O)O)[C@H]1O[C@](CC)([C@H]2CC[C@](O)(CC)[C@H](C)O2)C[C@@H]1C [Lasalocid sodium salt, Lasalocid]	PPM	215
CC[C@@H](C(=O)[C@@H](C)[C@@H](O)[C@H](C)[C@@H]1O[C@@H]([C@@H](CC)C(=O)O)CC[C@@H]1C)[C@H]1O[C@]2(C=C[C@@H](O)[C@]3(CC[C@@](C)([C@H]4CC[C@](O)(CC)[C@H](C)O4)O3)O2)[C@H](C)C[C@@H]1C [Salinomycin monosodium salt, Salinomycin]	PPM	191

====

test system: Nitrobacter spp.; test: Nitrite nitrogen in ammonium amended soil incubated at 25° C.; conditions: 0.10 ppm; week 7; soil 25° C.; 200 ppm N
Where a name gives a salt, the structure may show the parent alone.

COMPOUND	Concentration of nitrite nitrogen
CC[C@@H](C(=O)[C@@H](C)[C@@H](O)[C@H](C)CCc1ccc(C)c(O)c1C(=O)O)[C@H]1O[C@](CC)([C@H]2CC[C@](O)(CC)[C@H](C)O2)C[C@@H]1C [Lasalocid sodium salt, Lasalocid]	12 ppm
CC[C@@]1([C@@H]2O[C@@H]([C@H]3O[C@@](O)(CO)[C@H](C)C[C@@H]3C)C[C@@H]2C)CC[C@H]([C@]2(C)CC[C@]3(C[C@H](O)[C@@H](C)[C@@H]([C@@H](C)[C@@H](OC)[C@H](C)C(=O)O)O3)O2)O1 [Monensin sodium salt, Monensin]	7 ppm
CC[C@@H](C(=O)[C@@H](C)[C@@H](O)[C@H](C)[C@@H]1O[C@@H]([C@@H](CC)C(=O)O)CC[C@@H]1C)[C@H]1O[C@]2(C=C[C@@H](O)[C@]3(CC[C@@](C)([C@H]4CC[C@](O)(CC)[C@H](C)O4)O3)O2)[C@H](C)C[C@@H]1C [Salinomycin monosodium salt, Salinomycin]	-4 ppm
CO[C@@H]1[C@@H](OC)[C@H](C)[C@@](O)(CC(=O)O)O[C@H]1[C@H](C)[C@H]1O[C@@]2(CC[C@@](C)([C@H]3CC[C@@](C)([C@@H]4O[C@@H]([C@H]5O[C@](C)(O)[C@H](C)C[C@@H]5C)C[C@@H]4O[C@@H]4C[C@H](OC)[C@@H](OC)[C@H](C)O4)O3)O2)C[C@H](O)[C@H]1C [Maduramicin monoammonium salt, Maduramicin]	12 ppm
